assay-overview: Quantification of compounds in mice plasma by LC-MS-MS and PK parameters after i.v. injection
Format: in vivo
condition-set: Balb/C, mouse, in vivo, iv, 25 mg/kg
measured-parameter: MRT (h)
Give your result in h as a bare value.

The compound listed as C/C1=C\[C@H](C)[C@@H](O)C[C@@H](O)/C(C)=C/[C@H](C)C[C@@H](C)CC[C@@H]([C@@H](C)C(=O)O)OC(=O)[C@@H](C)C1 [Strasseriolide D, strasseriolide D] shows MRT equal to 8

The compound listed as C/C1=C\[C@H](C)CCC(=O)/C(C)=C/[C@H](C)C[C@@H](C)CC[C@@H]([C@@H](C)C(=O)O)OC(=O)[C@@H](C)C1 [Strasseriolide A, strasseriolide A] shows MRT equal to 2.98

The compound listed as C/C1=C\[C@H](C)C(=O)C[C@@H](O)/C(C)=C/[C@H](C)C[C@@H](C)CC[C@@H]([C@@H](C)C(=O)O)OC(=O)[C@@H](C)C1 [Strasseriolide C, strasseriolide C] shows MRT equal to 4.7

====

Answer each item with its documented concentration at 0.5 h.
assay-overview: Quantification of compounds in mice plasma by LC-MS-MS and PK parameters after i.v. injection
Assay type: in vivo
condition-set: Balb/C, mouse, in vivo, iv, 25 mg/kg, Ave. Conc. in plasma
Give your result in nM as a bare value.

The compound listed as C/C1=C\[C@H](C)C(=O)C[C@@H](O)/C(C)=C/[C@H](C)C[C@@H](C)CC[C@@H]([C@@H](C)C(=O)O)OC(=O)[C@@H](C)C1 [Strasseriolide C, strasseriolide C] shows concentration at 0.5 h equal to 246

The compound listed as C/C1=C\[C@H](C)CCC(=O)/C(C)=C/[C@H](C)C[C@@H](C)CC[C@@H]([C@@H](C)C(=O)O)OC(=O)[C@@H](C)C1 [Strasseriolide A, strasseriolide A] shows concentration at 0.5 h equal to 498

====

assay-overview: Quantification of compounds in mice plasma by LC-MS-MS and PK parameters after i.v. injection
Type: in vivo
condition-set: Balb/C, mouse, in vivo, iv, 25 mg/kg
Answer each item with its documented MRT inf.
Give your result in h as a bare value.

The compound listed as C/C1=C\[C@H](C)C(=O)C[C@@H](O)/C(C)=C/[C@H](C)C[C@@H](C)CC[C@@H]([C@@H](C)C(=O)O)OC(=O)[C@@H](C)C1 [Strasseriolide C, strasseriolide C] shows MRT inf equal to 4.71

The compound listed as C/C1=C\[C@H](C)[C@@H](O)C[C@@H](O)/C(C)=C/[C@H](C)C[C@@H](C)CC[C@@H]([C@@H](C)C(=O)O)OC(=O)[C@@H](C)C1 [Strasseriolide D, strasseriolide D] shows MRT inf equal to 8.02

The compound listed as C/C1=C\[C@H](C)CCC(=O)/C(C)=C/[C@H](C)C[C@@H](C)CC[C@@H]([C@@H](C)C(=O)O)OC(=O)[C@@H](C)C1 [Strasseriolide A, strasseriolide A] shows MRT inf equal to 2.99

====

assay-overview: Quantification of compounds in mice plasma by LC-MS-MS and PK parameters after i.v. injection
Assay type: in vivo
condition-set: Balb/C, mouse, in vivo, iv, 25 mg/kg, Ave. Conc. in plasma
Method: Three Balb/C mice (6–8 weeks old) were intravenously injected with 25 mg/kg of strasseriolide D dissolved in 200 µL of vehicle (0.5%HPMC, 0.5% Tween 80 and 0.5% Benzyl alcohol in water). […] Fifteen microlitres (15 µL) plasma from the various time points of the strasseriolide D-injected mice, were respectively transferred into 0.7 mL Eppendorf tubes. […] The samples were placed in an auto-sampler drawer for LC–MS–MS analysis and quantification of strasseriolide D (the test compound) in mice plasma. […]
Answer each item with its documented concentration at 6 h.
Give your result in nM as a bare value.

The compound listed as C/C1=C\[C@H](C)CCC(=O)/C(C)=C/[C@H](C)C[C@@H](C)CC[C@@H]([C@@H](C)C(=O)O)OC(=O)[C@@H](C)C1 [Strasseriolide A, strasseriolide A] shows concentration at 6 h equal to 11.6

The compound listed as C/C1=C\[C@H](C)C(=O)C[C@@H](O)/C(C)=C/[C@H](C)C[C@@H](C)CC[C@@H]([C@@H](C)C(=O)O)OC(=O)[C@@H](C)C1 [Strasseriolide C, strasseriolide C] shows concentration at 6 h equal to 24

====

assay-overview: Quantification of compounds in mice plasma by LC-MS-MS and PK parameters after i.v. injection
Type: in vivo
condition-set: Balb/C, mouse, in vivo, iv, 25 mg/kg
Answer each item with its documented k el.
Give your result in s⁻¹ as a bare value.

The compound listed as C/C1=C\[C@H](C)CCC(=O)/C(C)=C/[C@H](C)C[C@@H](C)CC[C@@H]([C@@H](C)C(=O)O)OC(=O)[C@@H](C)C1 [Strasseriolide A, strasseriolide A] shows k el equal to 4.36e-05

The compound listed as C/C1=C\[C@H](C)C(=O)C[C@@H](O)/C(C)=C/[C@H](C)C[C@@H](C)CC[C@@H]([C@@H](C)C(=O)O)OC(=O)[C@@H](C)C1 [Strasseriolide C, strasseriolide C] shows k el equal to 3.04e-05

The compound listed as C/C1=C\[C@H](C)[C@@H](O)C[C@@H](O)/C(C)=C/[C@H](C)C[C@@H](C)CC[C@@H]([C@@H](C)C(=O)O)OC(=O)[C@@H](C)C1 [Strasseriolide D, strasseriolide D] shows k el equal to 2.65e-05

====

assay-overview: Quantification of compounds in mice plasma by LC-MS-MS and PK parameters after i.v. injection
Type: in vivo
condition-set: Balb/C, mouse, in vivo, iv, 25 mg/kg
measured-parameter: Tmax (min)
Give your result in min as a bare value.

The compound listed as C/C1=C\[C@H](C)C(=O)C[C@@H](O)/C(C)=C/[C@H](C)C[C@@H](C)CC[C@@H]([C@@H](C)C(=O)O)OC(=O)[C@@H](C)C1 [Strasseriolide C, strasseriolide C] shows Tmax equal to 30

The compound listed as C/C1=C\[C@H](C)[C@@H](O)C[C@@H](O)/C(C)=C/[C@H](C)C[C@@H](C)CC[C@@H]([C@@H](C)C(=O)O)OC(=O)[C@@H](C)C1 [Strasseriolide D, strasseriolide D] shows Tmax equal to 90

The compound listed as C/C1=C\[C@H](C)CCC(=O)/C(C)=C/[C@H](C)C[C@@H](C)CC[C@@H]([C@@H](C)C(=O)O)OC(=O)[C@@H](C)C1 [Strasseriolide A, strasseriolide A] shows Tmax equal to 30

====

assay-overview: Quantification of compounds in mice plasma by LC-MS-MS and PK parameters after i.v. injection
Format: in vivo
condition-set: Balb/C, mouse, in vivo, iv, 25 mg/kg, t1/2
measured-parameter: half-life (h)
Give your result in h as a bare value.

The compound listed as C/C1=C\[C@H](C)C(=O)C[C@@H](O)/C(C)=C/[C@H](C)C[C@@H](C)CC[C@@H]([C@@H](C)C(=O)O)OC(=O)[C@@H](C)C1 [Strasseriolide C, strasseriolide C] shows half-life equal to 6.34

The compound listed as C/C1=C\[C@H](C)[C@@H](O)C[C@@H](O)/C(C)=C/[C@H](C)C[C@@H](C)CC[C@@H]([C@@H](C)C(=O)O)OC(=O)[C@@H](C)C1 [Strasseriolide D, strasseriolide D] shows half-life equal to 7.27

The compound listed as C/C1=C\[C@H](C)CCC(=O)/C(C)=C/[C@H](C)C[C@@H](C)CC[C@@H]([C@@H](C)C(=O)O)OC(=O)[C@@H](C)C1 [Strasseriolide A, strasseriolide A] shows half-life equal to 4.41

====

assay-overview: Quantification of compounds in mice plasma by LC-MS-MS and PK parameters after i.v. injection
Format: in vivo
condition-set: Balb/C, mouse, in vivo, iv, 25 mg/kg, Ave. Conc. in plasma
measured-parameter: concentration at 1.5 h (nM)
Give your result in nM as a bare value.

The molecule listed as C/C1=C\[C@H](C)[C@@H](O)C[C@@H](O)/C(C)=C/[C@H](C)C[C@@H](C)CC[C@@H]([C@@H](C)C(=O)O)OC(=O)[C@@H](C)C1 [Strasseriolide D, strasseriolide D] shows concentration at 1.5 h equal to 1250

====

assay-overview: Quantification of compounds in mice plasma by LC-MS-MS and PK parameters after i.v. injection
Assay type: in vivo
condition-set: Balb/C, mouse, in vivo, iv, 25 mg/kg, Ave. Conc. in plasma
measured-parameter: concentration at 5 h (nM)
Give your result in nM as a bare value.

The molecule listed as C/C1=C\[C@H](C)[C@@H](O)C[C@@H](O)/C(C)=C/[C@H](C)C[C@@H](C)CC[C@@H]([C@@H](C)C(=O)O)OC(=O)[C@@H](C)C1 [Strasseriolide D, strasseriolide D] shows concentration at 5 h equal to 389
